system: SNB-75 CNS; experiment: NCI-60 one-dose screen, 48 h (100 = growth as untreated, 0 = no growth, -100 = all killed); details: 10 µM unless noted
The panel holds about 83,000 compounds, 20% with a hit somewhere; the sample as a whole holds those more often.
growth values for the compounds below.
endpointLabel: growth (%)

compound: O=C(Nc1ccc(Nc2ccncc2)cc1)c1ccc(Nc2ccnc3ccc([N+](=O)[O-])cc23)cc1[N+](=O)[O-]
endpointLabel: growth
dataValue: 85.8
//
compound: CCCCCCCC/C=C/CCCCCCCC1=NC(C)(C)CN1CC(C)O (configuration not stated)
endpointLabel: growth
dataValue: 32
//
compound: N#CCCN(CCO)c1ccccc1
endpointLabel: growth
dataValue: 100
//
compound: COc1ccc2c(c1)C(=O)c1c-2c(OCCCN(C)C)nc2cc(Br)ccc12
endpointLabel: growth
dataValue: 79.2
//
compound: Cc1ccc(NC(=O)COC(=O)c2ccc(S(=O)(=O)N3CCCCCC3)cc2)cc1
endpointLabel: growth
dataValue: 94.7
//
compound: O=C(Nc1ccc(Cl)cc1)c1cc2c(cc1O)[nH]c1ccccc12
endpointLabel: growth
dataValue: 38.3
//
compound: CC1CC(C)/C(=N/NC(N)=O)C(C(O)CC2CCC(=O)NC2=O)C1 (configuration not stated)
endpointLabel: growth
dataValue: 57.7
